System: HDF cells
assayName: MTT cytotoxicity assay on HDF normal cells
Format: cell-based, human
conditions: Homo sapiens, 24 h, read-out: IC50 (µM) ± SD (HDF) 24 h
Description: Two mg of each compound was dissolved in 100 μl hydrochloric acid (HCl 0.3 N) to make a primary stock solution. Different concentrations (1.56–50 μg ml^−1) were then prepared by serial dilution from the primary stock solution and further diluted in the culture medium. PC-3 cells were obtained from Pasteur Institute (Tehran, Iran) and routinely cultured in RPMI 1640 supplemented with 10% FBS. […] The MTT reduction assay is a standard quantitative method to evaluate cytotoxicity. […]
observable: IC50
Express the reported value numerically, then name its unit.

Just so you know, measured IC50 for "CCc1nc(N2CCN(C)CC2)nc2c1Nc1ccccc1S2" came out at 546 µM
